- assayedSystem: T1, human hepcidin (mature, 25 amino acids) (human, mono-biotinylated in the ELISAs and on the KinExA beads (site not stated); unlabelled in solution and on the BIAcore chip)
- T1 construct: the form is named in each assay field; also called rhuHepc; rhHepc
- T1 peptide: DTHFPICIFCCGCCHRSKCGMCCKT
- procedureDetails: ELISA, mono-biotinylated human hepcidin on Neutravidin plate, pH 6.0
metricName: EC50 (µg/mL)

- antibody 18B11 (antibody, V domains shown, Human antibody from Xenomouse IgG2 or IgG4 mice; also called 181311) VH: QVQLQQWGAGPLKPSETLSLTCAVYNGSFSGYYWSWIRQPPGKGLEWIGDINHSGNTKYNPSLKSRVTISVDTSKNQFSLKLSSVTAADTAVYYCARGDFWSGFDWFDPWGQGTLVTVSS VL: QSALTQPASVSGSPGQSITISCTGTSSNVGSYNLVSWYQQHPGKAPKLMISEVSKRPSGLSNRFSGSKSGNTASLTISGLQAEDEADYYCCSYAGSSTLIFGGGTKLTVL: 0.244
- 15E1 A89H (antibody, V domains shown, Histidine mutant of 15E1, transiently expressed in 293-6E cells; constant regions as in wild-type 15E1; also called A89H (light chain)) VH: QVQLVESGGGVVQPGRSLRLSCAASGFTFSSYGMHWVRQAPGKGLEWVAVIWYAESNKYYADSVKGRFTISRDNSKNTLYLQMNSLRAEDTAVYYCARAQEGIAPDAFDIWGQGTMVTVSS VL: SYELTQPPSVSVSPGQTATITCSGDKLGERYACWYQQRPGQSPVLVIYQDSKRPSGIPERFSGSNSGNTATLTISGTQAMDEADYFCQHWYSSTNVLFGGGTKLTVL: 0.0106
- 15E1 A107H A89H (antibody, V domains shown, Double histidine mutant of 15E1 (one change in each chain); constant regions as in wild-type 15E1; also called A107H (heavy chain)/A89H (light chain)) VH: QVQLVESGGGVVQPGRSLRLSCAASGFTFSSYGMHWVRQAPGKGLEWVAVIWYAESNKYYADSVKGRFTISRDNSKNTLYLQMNSLRAEDTAVYYCARAQEGIAPDHFDIWGQGTMVTVSS VL: SYELTQPPSVSVSPGQTATITCSGDKLGERYACWYQQRPGQSPVLVIYQDSKRPSGIPERFSGSNSGNTATLTISGTQAMDEADYFCQHWYSSTNVLFGGGTKLTVL: 0.0347
- 15E1 A99H (antibody, V domains shown, Histidine mutant of 15E1, transiently expressed in 293-6E cells; constant regions as in wild-type 15E1; also called A99H (heavy chain)) VH: QVQLVESGGGVVQPGRSLRLSCAASGFTFSSYGMHWVRQAPGKGLEWVAVIWYAESNKYYADSVKGRFTISRDNSKNTLYLQMNSLRAEDTAVYYCARHQEGIAPDAFDIWGQGTMVTVSS VL: SYELTQPPSVSVSPGQTATITCSGDKLGERYACWYQQRPGQSPVLVIYQDSKRPSGIPERFSGSNSGNTATLTISGTQAMDEADYFCQAWYSSTNVLFGGGTKLTVL: 0.0107
